target: Butyrylcholinesterase (Cortex) (Homo sapiens, UniProt P06276); experiment: biochemical
Sequence (P06276 29-602): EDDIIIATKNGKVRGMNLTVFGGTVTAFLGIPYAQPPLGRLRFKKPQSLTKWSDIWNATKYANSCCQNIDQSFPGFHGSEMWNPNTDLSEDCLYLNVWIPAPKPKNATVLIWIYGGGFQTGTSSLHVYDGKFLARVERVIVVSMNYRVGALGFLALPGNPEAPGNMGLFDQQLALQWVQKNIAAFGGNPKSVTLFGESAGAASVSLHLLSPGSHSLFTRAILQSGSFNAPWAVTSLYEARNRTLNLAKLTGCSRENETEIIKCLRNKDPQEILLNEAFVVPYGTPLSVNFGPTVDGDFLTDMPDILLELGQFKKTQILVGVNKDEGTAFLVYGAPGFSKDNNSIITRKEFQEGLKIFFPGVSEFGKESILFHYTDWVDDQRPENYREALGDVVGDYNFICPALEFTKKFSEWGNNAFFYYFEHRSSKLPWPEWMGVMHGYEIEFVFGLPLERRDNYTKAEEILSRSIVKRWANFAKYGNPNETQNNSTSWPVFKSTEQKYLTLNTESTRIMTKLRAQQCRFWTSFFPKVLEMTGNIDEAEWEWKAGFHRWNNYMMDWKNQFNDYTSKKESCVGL

{"Compound": "CN1CC[C@@]2(C)c3cc(O)ccc3N(C)[C@@H]12 [(-)eseroline, (-)-eseroline, reference compound]", "IC50": "> 10 µM"}
{"Compound": "CN1CC[C@@]2(C)c3cc(O)ccc3N(C)[C@@H]12 (relative stereo) [(+/-)eseroline, reference compound]", "IC50": "> 10 µM"}
{"Compound": "CN1CC[C@]2(C)c3cc(O)ccc3N(C)[C@H]12 [(+)eseroline, reference compound]", "IC50": "> 10 µM"}
